# IC50 per entry
subject_of_test: NR1/NR2A (Homo sapiens, UniProt Q05586+Q12879)
Sequence (Q12879 23-1464, other chains not shown): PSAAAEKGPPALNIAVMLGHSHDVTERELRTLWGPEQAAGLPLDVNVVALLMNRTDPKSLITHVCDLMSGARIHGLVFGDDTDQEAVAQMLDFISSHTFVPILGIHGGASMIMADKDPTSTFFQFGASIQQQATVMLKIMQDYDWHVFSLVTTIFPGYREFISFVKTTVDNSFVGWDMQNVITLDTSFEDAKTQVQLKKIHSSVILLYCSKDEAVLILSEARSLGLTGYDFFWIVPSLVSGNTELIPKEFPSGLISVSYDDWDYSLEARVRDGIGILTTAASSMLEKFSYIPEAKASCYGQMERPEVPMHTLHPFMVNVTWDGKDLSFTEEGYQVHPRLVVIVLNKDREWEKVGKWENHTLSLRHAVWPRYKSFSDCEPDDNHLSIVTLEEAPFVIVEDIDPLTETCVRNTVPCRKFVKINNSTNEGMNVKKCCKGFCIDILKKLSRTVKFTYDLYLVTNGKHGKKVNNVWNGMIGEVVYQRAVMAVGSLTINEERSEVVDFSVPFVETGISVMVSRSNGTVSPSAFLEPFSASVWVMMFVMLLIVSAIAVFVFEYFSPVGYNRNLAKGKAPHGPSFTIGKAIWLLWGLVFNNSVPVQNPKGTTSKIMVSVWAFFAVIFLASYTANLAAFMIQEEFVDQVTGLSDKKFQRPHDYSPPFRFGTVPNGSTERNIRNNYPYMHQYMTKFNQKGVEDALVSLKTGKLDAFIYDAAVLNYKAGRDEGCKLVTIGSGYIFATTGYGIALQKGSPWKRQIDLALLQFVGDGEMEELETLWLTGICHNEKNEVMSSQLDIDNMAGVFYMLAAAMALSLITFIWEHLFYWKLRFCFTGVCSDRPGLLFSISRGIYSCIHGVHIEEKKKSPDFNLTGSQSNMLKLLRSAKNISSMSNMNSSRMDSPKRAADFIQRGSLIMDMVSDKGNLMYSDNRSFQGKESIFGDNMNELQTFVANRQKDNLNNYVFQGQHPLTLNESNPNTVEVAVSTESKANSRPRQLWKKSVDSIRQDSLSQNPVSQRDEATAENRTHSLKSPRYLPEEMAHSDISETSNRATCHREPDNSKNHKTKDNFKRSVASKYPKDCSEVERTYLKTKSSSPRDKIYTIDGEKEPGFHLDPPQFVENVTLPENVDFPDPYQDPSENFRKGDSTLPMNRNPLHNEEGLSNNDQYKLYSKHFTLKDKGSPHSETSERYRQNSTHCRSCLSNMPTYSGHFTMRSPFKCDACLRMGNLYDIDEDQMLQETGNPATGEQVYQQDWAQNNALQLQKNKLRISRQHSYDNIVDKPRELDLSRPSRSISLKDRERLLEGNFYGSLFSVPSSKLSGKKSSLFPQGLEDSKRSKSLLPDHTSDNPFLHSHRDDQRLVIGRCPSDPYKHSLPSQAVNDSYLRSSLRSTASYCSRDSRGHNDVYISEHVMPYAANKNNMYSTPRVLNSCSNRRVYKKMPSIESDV
test_name: Channel blocking activity on NMDA receptors (NR1/NR2A) expressed on Xenopus oocytes, two electrode voltage clamp
test_readout: IC50 (µM)

[[record]]
compound = "NCCCNCCCCNCCCNC(=O)n1c2ccccc2c2ccccc21"
measured = 15

[[record]]
compound = "NCCCCNCCCCNCCCCNC(=O)c1ccc2c(c1)C(=O)c1ccccc1C2=O"
measured = 0.47


###

# IC50 per entry
subject_of_test: NR1/NR2A (Homo sapiens, UniProt Q05586+Q12879)
test_name: Channel blocking activity on NMDA receptors (NR1/NR2A) expressed on Xenopus oocytes, two electrode voltage clamp
conditions_used: read-out: 50% inhibition concentration (IC50) of channel blocking activity; membrane potential clamp at −70 mV; 10 μM glycine and 10 μM glutamic acid; Xenopus oocytes
test_readout: IC50 (nM)

[[record]]
molecule = "NCCCCNCCCCNCCCCNC(=O)N1c2ccccc2CCc2ccccc21 [DDBA444, Dihydrodibenzoazepine Homospermine]"
test_readout = "IC50"
measured = 72

[[record]]
molecule = "NCCCCNCCCCNCCCCNC(=O)N1c2ccccc2C=Cc2ccccc21 [DBA444, Dibenzoazepine Homospermine]"
test_readout = "IC50"
measured = 240

